- assay_protocol: basal S. cerevisiae growth modulation, no modifier, primary screen, OD600, strain BY4716, 24 h, basal condition (AID 1173)
- condition_description: OD600, 24 h, higher = more signal, called active from +8 up or from −8 down
Given measured z-score, output Y if it is greater than or equal to -0.4 and N if not.

Completed entries (count: 5):
O=C1O[C@@H](c2ccccc2)[C@@H](c2ccccc2)N2[C@@H](c3ccc(O)cc3)[C@]3(C(=O)Nc4ccc(C#CC5(O)CCCCCC5)cc43)[C@@H](C(=O)NC[C@H](O)c3ccccc3)[C@H]12	Y
C=C(/C(=C/C[C@H](OC(=O)c1ccncc1)c1ccc(CO)o1)c1cc(C(=O)OC)ccc1OC)C(C)C	Y
COCCCNC(=O)[C@@]1(Sc2ccc(C)cc2)CC(=O)N(C2CCCCC2)[C@@H]1c1ccc(CO)cc1	Y
NCCCCCCNC(=O)[C@@H]1C[C@@H]2C(=O)N[C@@H](CCCCN)C(=O)N2[C@@H]1c1cccc(OCCO)c1	Y
O=C(NCCCCCNC(=O)/C(Cc1ccccc1)=N/O)OCc1ccccc1	N

Enquiry: Decide: is the reported value of z-score for `COCC1=C2[C@@H](CCc3ccccc3)OB(O)C[C@@H]2[C@@H]2C(=O)C=CC(=O)[C@@H]2C1` equal to or greater than -0.4?
Return: N

Enquiry: Consider next the compound CC(C)(C)N1CC=CC23O[C@@H]4C=CCOC(=O)[C@@H]4[C@H]2C(=O)N(CCCCCCO)[C@@H]3C1=O (some centres undefined) in the same way.
Return: Y

Enquiry: Consider next the compound O=C1C2C=CC(C(O)c3ccccc3)N(Nc3ccccc3F)C2C(=O)N1c1ccccc1 (centres undefined) in the same way.
Return: N

Enquiry: Consider next the compound `COCCOC(=O)N1C(=O)[C@@]2(c3cc(C#CC4=CCCCC4)ccc31)[C@H](c1ccc(OCCO)cc1)N1[C@H](c3ccccc3)[C@H](c3ccccc3)OC(=O)[C@H]1[C@@H]2C(=O)NC[C@H](O)c1ccccc1` in the same way.
Return: Y

Enquiry: Consider next the compound `O=C1c2ccccc2[C@](Cc2ccccc2I)(C(=O)NCC(F)(F)F)[C@H](c2ccc(CO)cc2)N1C1CCCCC1` in the same way.
Return: N

Enquiry: Consider next the compound OCCCC1=CC(c2ccc(CN3CCCC3)cc2)N(Cc2sc3ccccc3c2Cl)CC1 (centres undefined) in the same way.
Return: N

Enquiry: Consider next the compound `CCOC(=O)C[C@H]1[C@H](OC(=O)Cc2ccc3c(c2)OCO3)[C@@H](NC(=O)Cc2ccc(OC)cc2)c2cc(OCCCO)ccc2N1C(=O)c1ccc2ccccc2n1` in the same way.
Return: N

Enquiry: Consider next the compound CC(CO)N1C(=O)[C@@H]2[C@H]3C(=O)OCC=C[C@H]3OC23C=CCN(C(C)(C)C)C(=O)[C@@H]13 (some centres undefined) in the same way.
Return: Y

Enquiry: Consider next the compound COc1cc(OC)c(C(O)C2C=CC3C(=O)N(c4ccccc4)C(=O)C3N2Nc2ccccc2)cc1Br (centres undefined) in the same way.
Return: N

###

- assay_protocol: E. coli acrAB mutant growth effects, primary screen, E. coli filamentation inducers, strain DRC39, OD650, 48 h (AID 1179);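 also: screen aims at cell division blockers that make cells filament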
- condition_description: E. coli DRC39 delta-acrAB growth, higher = more signal, called active from +8 up or from −8 down
Listed here are compounds together with their documented z-score.
Would you mind answering with just the numeric figure?

O=C1O[C@H](c2ccccc2)[C@H](c2ccccc2)N2[C@H]1[C@@H](C(=O)N1CCN(c3ncccn3)CC1)[C@]1(C(=O)Nc3ccc(C#CC4(O)CCCCCC4)cc31)[C@H]2c1ccc(OCCO)cc1	-0.0689

Enquiry: Requested read-out: z-score. Entry: CN1C(=O)C2C=CC(C(O)c3ccccn3)N(N(c3ccccc3)c3ccccc3)C2C1=O (configuration not stated)
Return: -0.38

Enquiry: Consider next the compound `COCCOC(=O)N1C(=O)[C@@]2(c3cc(C#CC4=CCCCC4)ccc31)[C@H](C(=O)N1CCCCCCC1)[C@H]1C(=O)O[C@H](c3ccccc3)[C@H](c3ccccc3)N1[C@@H]2c1ccc(O)cc1` in the same way.
Return: -0.863

Enquiry: Consider next the compound `Cc1ccc(S[C@]2(C(=O)O)CC(=O)N(C3Cc4ccccc4C3)[C@@H]2c2ccc(CO)cc2)cc1` in the same way.
Return: -0.108

Enquiry: Consider next the compound `O=C(N1CCCCC1)[C@@]1(CCS(=O)(=O)c2ccccc2)COC(c2ccc(OCCCO)cc2)=N1` in the same way.
Return: 0.21

Enquiry: Consider next the compound `NC(N)=NCCCn1cc(CNC(=O)[C@@H](N)Cc2ccccc2)nn1` in the same way.
Return: -0.0439

Enquiry: Consider next the compound O=C1OCC=C[C@H]2OC34C=CCN(Cc5ccccc5)C(=O)[C@H]3N(CCCCCCO)C(=O)[C@@H]4[C@@H]12 (some centres not stated) in the same way.
Return: 0.415

Every entry's value here was drawn from PubChem BioAssay.
